ASSAY_SYSTEM: UniProt P00784
Sequence (P00784 whole entry): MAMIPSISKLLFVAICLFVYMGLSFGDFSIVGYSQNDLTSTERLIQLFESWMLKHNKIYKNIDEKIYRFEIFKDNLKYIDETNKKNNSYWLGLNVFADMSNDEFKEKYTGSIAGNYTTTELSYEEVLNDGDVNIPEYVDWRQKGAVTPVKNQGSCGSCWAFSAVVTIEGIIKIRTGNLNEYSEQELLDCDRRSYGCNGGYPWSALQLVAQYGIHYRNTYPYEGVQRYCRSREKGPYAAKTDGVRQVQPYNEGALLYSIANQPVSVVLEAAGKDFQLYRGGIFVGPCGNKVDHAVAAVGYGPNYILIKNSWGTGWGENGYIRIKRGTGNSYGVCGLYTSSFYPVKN
REPORTED_METRIC: Ki

O=C(CC[C@H]1CCC[C@@H](NC(=O)[C@H](Cc2c[nH]c3ccccc23)NC(=O)OCc2ccccc2)C1=O)N[C@@H](Cc1c[nH]c2ccccc12)C(=O)O (stereo in doubt; 15A) | 380 µM

Turning to the following molecule.
Given the molecule O=C(CC[C@H]1CCC[C@@H](NC(=O)[C@H](Cc2ccccc2)NC(=O)OCc2ccccc2)C1=O)N[C@@H](Cc1c[nH]c2ccccc12)C(=O)O , write its reported Ki.
490 µM
